Assay Comment: Clearance in Sprague-Dawley rat at 5 mg/kg, po formulated using 0.5% HPMC + 0.3% Tween-80 (pH = 2.8) measured during 2 mins to 24 hrs post dose by LC/MS/MS method
Type: ADME, organism-based
Particulars: in vivo
Quantity: CL/F (mL/min/kg)
Give bare numbers, in mL/min/kg.

Looking up Cc1ccc(CN2CCN(C)CC2)cc1NC(=O)c1ccc(Nc2ncc(C)c(-c3ccc(OC(F)(F)F)cc3)n2)c(F)c1 , I see its CL/F listed as 68.7

====

Assay Comment: Cmax in Sprague-Dawley rat at 1 mg/kg, iv formulated using 5% DMA + 5% Tween-80 measured during 2 mins to 24 hrs post dose by LC/MS/MS method
Type: ADME, organism-based
Design: dose 1 mg/kg, route intravenous
Particulars: in vivo
Quantity: Cmax (ng/mL)
Answers are plain numbers, in ng/mL.

Looking up Cc1ccc(CN2CCN(C)CC2)cc1NC(=O)c1ccc(Nc2ncc(C)c(-c3ccc(OC(F)(F)F)cc3)n2)c(F)c1 , I see its Cmax listed as 225

====

Assay Comment: AUC (0 to t) in Sprague-Dawley rat at 5 mg/kg, po formulated using 0.5% HPMC + 0.3% Tween-80 (pH = 2.8) measured during 2 mins to 24 hrs post dose by LC/MS/MS method
Assay type: ADME, organism-based
Design: time 0.033-24 hr, dose 5 mg/kg, route oral
Particulars: in vivo
Quantity: AUC(0-t) (ng·h/mL)
One number for each entry, in ng·h/mL.

Looking up Cc1ccc(CN2CCN(C)CC2)cc1NC(=O)c1ccc(Nc2ncc(C)c(-c3ccc(OC(F)(F)F)cc3)n2)c(F)c1 , I see its AUC(0-t) listed as 882

====

Assay Comment: Clearance in Sprague-Dawley rat at 1 mg/kg, iv formulated using 5% DMA + 5% Tween-80 measured during 2 mins to 24 hrs post dose by LC/MS/MS method
Format: ADME, organism-based
Particulars: in vivo
Quantity: clearance (mL/min/kg)
Numbers only, in mL/min/kg.

Looking up Cc1ccc(CN2CCN(C)CC2)cc1NC(=O)c1ccc(Nc2ncc(C)c(-c3ccc(OC(F)(F)F)cc3)n2)c(F)c1 , I see its clearance listed as 32.2

====

Assay Comment: AUC (0 to t) in Sprague-Dawley rat at 5 mg/kg, po formulated using 5% DMA + 5% Tween-80 measured during 2 mins to 24 hrs post dose by LC/MS/MS method
Assay type: ADME, organism-based
Design: time upper 24 hr, time lower 0.033 hr, dose 5 mg/kg, route oral
Particulars: in vivo
Quantity: AUC(0-t) (ng·h/mL)
Give bare numbers, in ng·h/mL.

Looking up Cc1ccc(CN2CCN(C)CC2)cc1NC(=O)c1ccc(Nc2ncc(C)c(-c3ccc(OC(F)(F)F)cc3)n2)c(F)c1 , I see its AUC(0-t) listed as 956

====

Assay Comment: Mean residence time (0 to t) in Sprague-Dawley rat at 5 mg/kg, po formulated using 5% DMA + 5% Tween-80 measured during 2 mins to 24 hrs post dose by LC/MS/MS method
Format: ADME, organism-based
Particulars: in vivo
Quantity: MRT last (h)
Answers are plain numbers, in h.

Looking up Cc1ccc(CN2CCN(C)CC2)cc1NC(=O)c1ccc(Nc2ncc(C)c(-c3ccc(OC(F)(F)F)cc3)n2)c(F)c1 , I see its MRT last listed as 10.7

====

Assay Comment: Mean residence time (0 to t) in Sprague-Dawley rat at 5 mg/kg, po formulated using 0.5% HPMC + 0.3% Tween-80 (pH = 2.8) measured during 2 mins to 24 hrs post dose by LC/MS/MS method
Type: ADME, organism-based
Particulars: in vivo
Quantity: MRT last (h)
One number for each entry, in h.

Looking up Cc1ccc(CN2CCN(C)CC2)cc1NC(=O)c1ccc(Nc2ncc(C)c(-c3ccc(OC(F)(F)F)cc3)n2)c(F)c1 , I see its MRT last listed as 10.3

====

Assay Comment: Half life in Sprague-Dawley rat at 1 mg/kg, iv formulated using 5% DMA + 5% Tween-80 measured during 2 mins to 24 hrs post dose by LC/MS/MS method
Format: ADME, organism-based
Particulars: in vivo
Quantity: half-life (min)
One number for each entry, in min.

Looking up Cc1ccc(CN2CCN(C)CC2)cc1NC(=O)c1ccc(Nc2ncc(C)c(-c3ccc(OC(F)(F)F)cc3)n2)c(F)c1 , I see its half-life listed as 811

====

Assay Comment: Mean residence time (0 to t) in Sprague-Dawley rat at 1 mg/kg, iv formulated using 5% DMA + 5% Tween-80 measured during 2 mins to 24 hrs post dose by LC/MS/MS method
Assay type: ADME, organism-based
Particulars: in vivo
Quantity: MRT last (h)
Give bare numbers, in h.

Looking up Cc1ccc(CN2CCN(C)CC2)cc1NC(=O)c1ccc(Nc2ncc(C)c(-c3ccc(OC(F)(F)F)cc3)n2)c(F)c1 , I see its MRT last listed as 7.93

====

Assay Comment: Cmax in Sprague-Dawley rat at 5 mg/kg, po formulated using 0.5% HPMC + 0.3% Tween-80 (pH = 2.8) measured during 2 mins to 24 hrs post dose by LC/MS/MS method
Assay type: ADME, organism-based
Parameters: dose 5 mg/kg, route oral
Particulars: in vivo
Quantity: Cmax
Dear colleague, please send the value followed by its unit.

Looking up Cc1ccc(CN2CCN(C)CC2)cc1NC(=O)c1ccc(Nc2ncc(C)c(-c3ccc(OC(F)(F)F)cc3)n2)c(F)c1 , I see its Cmax listed as 57.1 ng/mL

====

Assay Comment: Half life in Sprague-Dawley rat at 5 mg/kg, po formulated using 0.5% HPMC + 0.3% Tween-80 (pH = 2.8) measured during 2 mins to 24 hrs post dose by LC/MS/MS method
Format: ADME, organism-based
Particulars: in vivo
Quantity: half-life (h)
Answers are plain numbers, in h.

Looking up Cc1ccc(CN2CCN(C)CC2)cc1NC(=O)c1ccc(Nc2ncc(C)c(-c3ccc(OC(F)(F)F)cc3)n2)c(F)c1 , I see its half-life listed as 11.7

====

For each entry below, report its Ratio IC50 value.
Species on record: Mus musculus
Assay Comment: Potency index, ratio of IC50 for Vismodegib to IC50 for test compound for inhibition of hedgehog signaling pathway in mouse NIH/3T3 cells carrying stably transfected Gli-reporter construct by luciferase reporter assay
Assay type: cell-based

Worked cases, answers included:
>  <Compound>
CCN(CC)Cc1ccc(C)c(NC(=O)c2ccc(Nc3ncc(C)c(-c4ccc(OC(F)(F)F)cc4)n3)c(F)c2)c1

>  <Ratio IC50>
> 8

$$$$
>  <Compound>
Cc1ccc(CN2CCN(C)CC2)cc1NC(=O)c1ccc(Nc2ncc(C)c(-c3ccc(OC(F)(F)F)cc3)n2)c(F)c1

>  <Ratio IC50>
> 8

$$$$
>  <Compound>
Cc1ccc(OCCN2CCOCC2)cc1NC(=O)c1ccc(Nc2ncc(C)c(-c3ccc(OC(F)(F)F)cc3)n2)c(F)c1

>  <Ratio IC50>
> 8

$$$$
>  <Compound>
Cc1ccc(CN(C)C)cc1NC(=O)c1ccc(Nc2ncc(C)c(-c3ccc(OC(F)(F)F)cc3)n2)c(F)c1

>  <Ratio IC50>
> 8

$$$$

Here are 3 molecules. What values of Ratio IC50 were reported for them?
1. Cc1ccc(CN2CCOCC2)cc1NC(=O)c1ccc(Nc2ncc(C)c(-c3ccccc3)n2)c(F)c1
2. Cc1ccc(CN2CCCCC2)cc1NC(=O)c1ccc(Nc2ncc(C)c(-c3ccc(OC(F)(F)F)cc3)n2)c(F)c1
3. Cc1ccc(CN2CCOCC2)cc1NC(=O)c1ccc(Nc2ncc(C)c(-c3ccc(OC(F)(F)F)cc3)n2)c(F)c1

[150, "> 8", 14]

====

Assay Comment: Apparent volume of distribution in Sprague-Dawley rat at 1 mg/kg, iv formulated using 5% DMA + 5% Tween-80 measured during 2 mins to 24 hrs post dose by LC/MS/MS method
Type: ADME, organism-based
Particulars: in vivo, read-out: Vz
Quantity: Vd (L/kg)
Give bare numbers, in L/kg.

Looking up Cc1ccc(CN2CCN(C)CC2)cc1NC(=O)c1ccc(Nc2ncc(C)c(-c3ccc(OC(F)(F)F)cc3)n2)c(F)c1 , I see its Vd listed as 37.4

====

Assay Comment: Half life in Sprague-Dawley rat at 5 mg/kg, po formulated using 5% DMA + 5% Tween-80 measured during 2 mins to 24 hrs post dose by LC/MS/MS method
Type: ADME, organism-based
Particulars: in vivo
Quantity: half-life (min)
One number for each entry, in min.

Looking up Cc1ccc(CN2CCN(C)CC2)cc1NC(=O)c1ccc(Nc2ncc(C)c(-c3ccc(OC(F)(F)F)cc3)n2)c(F)c1 , I see its half-life listed as 893

====

Assay Comment: AUC (0 to t) in Sprague-Dawley rat at 1 mg/kg, iv formulated using 5% DMA + 5% Tween-80 measured during 2 mins to 24 hrs post dose by LC/MS/MS method
Assay type: ADME, organism-based
Design: dose 1 mg/kg, time 0.033-24 hr, route intravenous
Particulars: in vivo
Quantity: AUC(0-t) (ng·h/mL)
Answers are plain numbers, in ng·h/mL.

Looking up Cc1ccc(CN2CCN(C)CC2)cc1NC(=O)c1ccc(Nc2ncc(C)c(-c3ccc(OC(F)(F)F)cc3)n2)c(F)c1 , I see its AUC(0-t) listed as 383
